biological target: CYP3A4 (Homo sapiens); construct: A system of 100 μL human liver microsomes; from tissue; host or cells: human liver microsomes; assay: Direct inhibition (DI) of CYP3A4 in human liver microsomes; format: in vitro ADME; settings: human liver microsomes 0.2 mg/mL, 10 μM compound, probe Testosterone, read-out: Direct inhibition (DI) 3A4 (testosterone)
Sequence (P08684 whole entry): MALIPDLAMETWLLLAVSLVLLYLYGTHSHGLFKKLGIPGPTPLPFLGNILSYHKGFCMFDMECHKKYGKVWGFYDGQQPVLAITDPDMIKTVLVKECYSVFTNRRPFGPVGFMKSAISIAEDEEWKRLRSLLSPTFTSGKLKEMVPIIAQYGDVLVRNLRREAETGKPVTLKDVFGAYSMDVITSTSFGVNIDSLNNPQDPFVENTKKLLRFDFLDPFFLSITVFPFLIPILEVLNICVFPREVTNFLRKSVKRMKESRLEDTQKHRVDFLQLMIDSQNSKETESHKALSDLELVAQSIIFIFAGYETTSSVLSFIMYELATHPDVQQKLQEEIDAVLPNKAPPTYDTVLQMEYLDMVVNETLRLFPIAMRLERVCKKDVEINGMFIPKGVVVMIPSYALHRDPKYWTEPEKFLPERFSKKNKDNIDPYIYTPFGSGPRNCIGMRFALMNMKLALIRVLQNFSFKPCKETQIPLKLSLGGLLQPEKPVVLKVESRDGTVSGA
resultType: inhibition at 20 min, 10 µM (%)

These recorded examples may help you get a feel for the data.
> print(dat)
                                   compound  measurement
1  CCOc1cc2ncnc(Nc3ccc(Oc4cc5nncn5cn4)c(C)c3)c2cc1NC(=O)/C=C/[C@H]1CCCN1           34
2  Cc1cc(Nc2ncnc3ccc(NC(=O)/C=C/[C@H]4CCCN4C)cc23)ccc1Oc1ccn2ncnc2c1           14

(a) CN1CCC[C@@H]1/C=C/C(=O)Nc1ccc2ncnc(Nc3ccc(Oc4ccn5ncnc5c4)c(Cl)c3)c2c1
(b) C=CC(=O)NC1CCC=C(c2ccc3ncnc(Nc4ccc(Oc5cc6nncn6cn5)c(C)c4)c3c2)C1 (stereo not shown)
query: # min-compare on inhibition at 20 min, 10 µM between a and b Write down the label attached to your selection.
result: a
(a: 5%, b: 94%)
